Items are presented alongside their recorded Ki.
study-system: Prostaglandin E2 receptor EP3 subtype (Homo sapiens, UniProt P43115)
Sequence (P43115 whole entry): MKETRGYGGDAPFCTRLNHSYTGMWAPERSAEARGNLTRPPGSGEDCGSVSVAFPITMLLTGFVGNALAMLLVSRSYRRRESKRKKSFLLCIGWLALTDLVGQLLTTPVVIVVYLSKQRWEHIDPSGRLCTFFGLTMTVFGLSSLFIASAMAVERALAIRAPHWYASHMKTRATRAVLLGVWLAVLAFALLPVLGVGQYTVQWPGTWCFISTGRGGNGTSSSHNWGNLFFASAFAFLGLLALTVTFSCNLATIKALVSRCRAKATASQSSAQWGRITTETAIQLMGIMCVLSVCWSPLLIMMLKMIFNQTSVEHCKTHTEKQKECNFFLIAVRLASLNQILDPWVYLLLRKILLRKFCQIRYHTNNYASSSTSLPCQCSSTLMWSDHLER
method-summary: Binding affinity to human EP3 receptor
Write down the numeric answer in µM and omit the unit.

In [3]: df
Out[3]:
                                   compound  metric  unit  assay_result
0  O=C(O)c1ccc(CCN2C(=O)CC[C@@H]2/C=C/[C@@H](O)CCC2CCC2)cc1      Ki    µM            79

Item under review: O=C(O)c1ccc(CCN2C(=O)CC[C@@H]2CC[C@@H](O)CCC2CCC2)cc1 . Reported Ki?
77

Item Cc1cc(Cl)ccc1-c1cccc([C@H](O)CC[C@H]2CCC(=O)N2CCc2ccc(C(=O)O)cc2)c1 has what recorded Ki?
54

---

method-summary: Volume of distribution in Wistar Han rat at 1 mg/kg, iv
Format: ADME, organism-based
Design: dose 1 mg/kg, route intravenous
experimental-parameters: in vivo, read-out: Vbeta
Quick list: Vd per entry.
State just the number; it will be interpreted in L/kg.

Solved entries (count: 2):
                                   compound  metric  unit  assay_result
0  CCCCC[C@H](O)/C=C/[C@H]1CCC(=O)N1CCCCOCC(=O)O      Vd  L/kg           1.5
1  CCCCC[C@H](O)CC[C@H]1CCC(=O)N1CCc1ccc(C(=O)O)cc1      Vd  L/kg          15.3

API: the following record is the query input.
// lookup Vd for CCCCC[C@H](O)/C=C/[C@H]1CCC(=O)N1CCCCCCC(=O)O
6.9

---

method-summary: Half life in Wistar Han rat at 1 mg/kg, iv
Type: ADME, organism-based
Set-up: dose 1 mg/kg, route intravenous
experimental-parameters: in vivo
metric: half-life

>>> df
                                   compound  assay_result
0  CCCCC[C@H](O)/C=C/[C@H]1CCC(=O)N1CCCCCCC(=O)O      52.2 min
1  CCCCC[C@H](O)/C=C/[C@H]1CCC(=O)N1CCSCCCC(=O)O      45.6 min
2  CCCCC[C@H](O)CC[C@H]1CCC(=O)N1CCc1ccc(C(=O)O)cc1       210 min

With those in mind, consider the next compound.
Data request, read-out half-life, for CCCCC[C@H](O)/C=C/[C@H]1CCC(=O)N1CCc1ccc(C(=O)O)cc1
46.8 min

---

study-system: Prostaglandin E2 receptor EP4 subtype (Homo sapiens)
Sequence (P35408 whole entry): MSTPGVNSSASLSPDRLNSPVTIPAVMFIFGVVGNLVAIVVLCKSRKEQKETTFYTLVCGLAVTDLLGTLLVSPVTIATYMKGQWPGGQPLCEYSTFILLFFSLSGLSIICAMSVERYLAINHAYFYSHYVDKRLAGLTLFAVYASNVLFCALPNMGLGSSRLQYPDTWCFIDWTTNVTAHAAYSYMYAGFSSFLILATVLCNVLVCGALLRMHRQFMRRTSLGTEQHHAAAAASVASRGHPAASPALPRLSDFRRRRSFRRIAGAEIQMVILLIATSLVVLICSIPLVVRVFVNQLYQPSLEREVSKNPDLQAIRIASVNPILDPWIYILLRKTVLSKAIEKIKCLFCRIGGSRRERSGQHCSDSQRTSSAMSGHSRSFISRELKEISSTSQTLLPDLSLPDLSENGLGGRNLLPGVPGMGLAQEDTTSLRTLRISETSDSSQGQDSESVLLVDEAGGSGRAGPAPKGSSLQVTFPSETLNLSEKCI
method-summary: Functional activity at human EP4 receptor
metric: EC50

In [3]: df
Out[3]:
                                   compound                              study_system     assay_result
0  CCCCC[C@H](O)/C=C/[C@H]1CCC(=O)N1CCc1ccc(C(=O)O)s1  Prostaglandin E2 receptor EP4 subtype (Homo sapiens)  12 nM (agonist)

Which EC50 reading was recorded for the compound Cc1cc(Cl)ccc1-c1cccc([C@H](O)CC[C@H]2CCC(=O)N2CCc2ccc(C(=O)O)cc2)c1 ?
0.04 nM (agonist)

EC50 for CCCCC[C@H](O)/C=C/[C@H]1CCC(=O)N1CCc1ccc(C(=O)O)cc1 ?
11 nM (agonist)

Which measured EC50 value corresponds to O=C(O)c1ccc(CCN2C(=O)CC[C@@H]2/C=C/[C@@H](O)CCC2CCC2)cc1 ?
0.2 nM (agonist)

Any idea what EC50 was measured for CCCCC[C@H](O)CC[C@H]1CCC(=O)N1CCc1ccc(C(=O)O)cc1 ?
130 nM (agonist)
